Taken from ChEMBL document CHEMBL1201862.

# System: IGROV-1
# assay procedure: NCI tumour cell line growth inhibition, 48 h
Activity calls are given as the source filed them. Rule as the data show it: active = GI50 up to about 1.1 µM and inactive = higher.
measurement label: GI50

Input line: For IGROV-1, provide GI50 of `OC(c1ccc2c(c1)OCO2)c1ccc2c(c1)OCO2` please.
Output line: > 100 µM (inactive)

Input line: What reported GI50 corresponds to COC(=O)/C=C\COCC1C2CCC(=O)C21 (configuration not stated) on IGROV-1?
Output line: 10.5 µM (inactive)

Input line: # value lookup — system IGROV-1, readout GI50, item `CC(C)[C@H]1CO[C@@H]2O[C@H](C)CC(=O)N21`
Output line: > 100 µM (inactive)

Input line: Field: GI50 (IGROV-1). Entry: CC(=O)c1ccc2c(c1)CC1(C2)Cc2cc3c(cc2C1=O)CCC3 (configuration not stated)
Output line: 19.8 µM (inactive)

Input line: Write down the reported GI50 of `Cc1cc2ccccc2c[n+]1CC(O)C[n+]1cc2ccccc2cc1C` , test system: IGROV-1.
Output line: > 100 µM (inactive)

Input line: Recorded GI50 for `Clc1ccc(/N=C/c2cc3cc(Br)ccc3nc2Cl)cc1` with IGROV-1, please?
Output line: 17.8 µM (inactive)

Input line: Form: Entry = `COc1ccc2c(c1)OC[C@@H]1c3cc(O)c(OCc4ccccc4)cc3O[C@H]21` | System = IGROV-1 | GI50 = ____
Output line: 26.5 µM (inactive)

Input line: Which GI50 is reported with IGROV-1 for this entry: `COc1cc2c(cc1OC)C(=O)N(NC1=NCCN1)C2=O` ?
Output line: > 100 µM (inactive)

Input line: Lab request: please report GI50 under test system IGROV-1 for O=C1Nc2ccccc2C1S(=O)(=O)c1ccccc1 (configuration not stated)
Output line: > 100 µM (inactive)

Input line: Request body: readout GI50, system IGROV-1, query O=c1/c(=C\c2ccccc2)sc2n1C(c1ccccc1)C1(O)CCCCC1N=2 (configuration not stated) . Return the value.
Output line: > 100 µM (inactive)

Input line: Reported GI50 for IGROV-1, given `COc1ccc(CCc2ccc(O)c(C(=O)O)c2)cc1OC` ?
Output line: > 100 µM (inactive)

Input line: Observed GI50 on IGROV-1 for `N#CCc1nc(-c2ccccc2)n[nH]1` , please.
Output line: > 100 µM (inactive)

---

Please provide measured GI50 for the entries that follow.
# System: IGROV-1
# assay procedure: NCI tumour cell line growth inhibition, 48 h
Active and inactive are the calls of the source. Rule as the data show it: active = GI50 up to about 1.1 µM and inactive = higher.

Input line: Looking for the measured GI50 of CCCCCCCCCCC(C)CCCCCCC(=O)OCC(COP(=O)([O-])OCC[N+](C)(C)C)OC(=O)CCCCCCC(C)CCCCCCCCCC (centres undefined) , can you help?
Output line: > 100 µM (inactive)

Input line: Given the entry FC(F)(F)c1ccc2c(c1)nc1n2C(c2c(Cl)cccc2Cl)SC1 (centres undefined) , report its measured GI50.
Output line: 17.3 µM (inactive)

Input line: Would you kindly share the measured GI50 for `O=C(NC1CCCCC1)NC12CC3CC(CC(F)(C3)C1)C2` ?
Output line: > 100 µM (inactive)

Input line: Return reported GI50; argument: O=C1c2ccccc2C2(c3ccc(Cl)cc3)N[C@H]3CCCC[C@@H]3N12 (some centres undefined)
Output line: > 100 µM (inactive)

Input line: Given COc1nc(C(Cl)(Cl)Cl)c(Cl)c(OC)c1Cl [PENCLOMEDINE] , state its recorded GI50.
Output line: 14.2 µM (inactive)

Input line: I am curious: what GI50 value has been reported for `CCCCCCCCOCC1S(=O)(=O)OCCOS1(=O)=O` ?
Output line: > 100 µM (inactive)

Input line: Given Cc1c(/N=N/c2ccccc2)c(C)n(C2OC(CO)C(O)C(O)C2O)c(=S)c1C#N (centres undefined) , state its recorded GI50.
Output line: 37.7 µM (inactive)

Input line: Using the record for CCO[C@]12C[C@H](OC)[C@@]3(O)CC(C1[C@H]3OCc1ccccc1)C13C4C2[C@H](OC)C1[C@](COC)(CN4CC)[C@H](O)C[C@@H]3OC (some centres undefined) , report its GI50.
Output line: > 100 µM (inactive)

Input line: // query GI50 value for entry COC(=O)CC1(O)C(/C=C/c2ccccc2)C(C(=O)OC)C(=O)C(C(=O)OC)C1C(=O)OC (centres undefined)
Output line: > 100 µM (inactive)
